system-tested: Nonstructural protein 3 (Zika virus, UniProt A0A024AXB9)
Sequence (A0A024AXB9 whole entry): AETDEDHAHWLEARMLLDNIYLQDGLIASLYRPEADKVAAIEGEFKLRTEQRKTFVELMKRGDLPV
protocol-text: Functional biochemical assay to identify treatments for viral infectious disease that targets Zika NS2B-NS3 protease. Utilizing a direct enzyme activity measurement method, reading the fluorescence intensity is used to characterize the relative potency of inhibitors as IC50.
Parameters: species or system PRVABC59
quantity-name: IC50

Examples from the recorded data:
[
  {
    "smiles-input": "NCc1ccccc1Oc1ccc(S(=O)(=O)Nc2ccc(Cl)cc2C(=O)O)cc1",
    "system-tested": "Nonstructural protein 3 (Zika virus, UniProt A0A024AXB9)",
    "result": "> 99.5 µM"
  },
  {
    "smiles-input": "C=CC[C@H]1c2ccc(NC(=O)c3cc(Br)cc4[nH]ccc34)cc2CN1C(=O)OC(C)(C)C",
    "system-tested": "Nonstructural protein 3 (Zika virus, UniProt A0A024AXB9)",
    "result": "> 25 µM"
  },
  {
    "smiles-input": "O=C(Nc1cc(-c2cccnc2)ccn1)c1cc(C2CC2)[nH]c(=O)c1",
    "system-tested": "Nonstructural protein 3 (Zika virus, UniProt A0A024AXB9)",
    "result": "> 25 µM"
  },
  {
    "smiles-input": "O=C1Cc2c(cccc2C(=O)NC2(c3ncccc3F)CC2)N1",
    "system-tested": "Nonstructural protein 3 (Zika virus, UniProt A0A024AXB9)",
    "result": "> 25 µM"
  },
  {
    "smiles-input": "Cc1nocc1S(=O)(=O)N[C@H](C(=O)Nc1cccc(CN)c1)c1ccc(OCc2ccccc2)cc1",
    "system-tested": "Nonstructural protein 3 (Zika virus, UniProt A0A024AXB9)",
    "result": "> 99.5 µM"
  }
]

Required: IC50, one value per compound below.
1. O=C1O[C@H]2CCN(Cc3ccc(OCc4ccccc4)cc3)C[C@H]12
2. O=C(Nc1ccc2c(c1)CNC2)c1ccc2c(Br)csc2c1

Reply:
1: > 99.5 µM; 2: 2.19 µM

Required: IC50, one value per compound below.
1. Clc1cc(CNc2ccc3c(n2)CNC3)c2cn[nH]c2c1
2. CCS(=O)(=O)c1ccc(Cl)cc1[C@H](Nc1ccc2c(c1)CNC2)C(=O)NCC(F)F
3. CC(C)Nc1nc2ccc(C(=O)Nc3nnnn3-c3ccccn3)cc2[nH]1
4. NCc1cccc(NC(=O)c2cc(NC(=O)OCc3ccccc3)cc(C3CC3)c2)c1

Reply:
["> 25 µM", "0.875 µM", "> 99.5 µM", "22.1 µM"]

Required: IC50, one value per compound below.
1. Cn1nnc(S(=O)(=O)N2CCC([C@H](NC(=O)OCc3ccccc3)C(=O)Nc3cccc(CN)c3)CC2)n1
2. CCc1cnccc1-c1nc2c(C(=O)Nc3ccc4c(c3)CNC4)cc(Cl)cc2[nH]1
3. O=C(O)c1cc(Cl)ccc1NS(=O)(=O)c1ccc(Oc2ccccc2)cc1
4. Cc1cc(N2CCC(NS(=O)(=O)c3ccc(Cl)cc3C(=O)O)CC2)nc(C)n1
5. CN1CCN(C2CCN(C(=O)c3cc(C=O)n(C)c3)CC2)CC1
6. CC(C)Cn1cc2c(C(=O)Nc3ccc4c(c3)CNC4)cc(Cl)cc2n1
7. O=c1c2ccccc2nnn1CSc1nnc(-c2ccccc2)o1
8. CC(C)(C)c1cc(N2CCN(c3cccc4[nH]ncc34)CC2)nc(C(=O)O)n1

Reply:
1. > 99.5 µM
2. 0.364 µM
3. 70.7 µM
4. > 99.5 µM
5. > 99.5 µM
6. 0.269 µM
7. > 99.5 µM
8. > 99.5 µM

Required: IC50, one value per compound below.
1. NCCCOc1cc2c(c(-c3ccc(N)nc3)c1)CCB(O)O2
2. O=C(Nc1ccc2c(c1)CNC2)c1cc(Cl)cc2c1NCCC2

Reply:
1. > 99.5 µM
2. 0.151 µM

// provenance: ChEMBL document CHEMBL5604062
